# tgt: T1, human CD276 protein (human, UniProt Q5ZPR3 29-534)
# T1 sequence (looked up): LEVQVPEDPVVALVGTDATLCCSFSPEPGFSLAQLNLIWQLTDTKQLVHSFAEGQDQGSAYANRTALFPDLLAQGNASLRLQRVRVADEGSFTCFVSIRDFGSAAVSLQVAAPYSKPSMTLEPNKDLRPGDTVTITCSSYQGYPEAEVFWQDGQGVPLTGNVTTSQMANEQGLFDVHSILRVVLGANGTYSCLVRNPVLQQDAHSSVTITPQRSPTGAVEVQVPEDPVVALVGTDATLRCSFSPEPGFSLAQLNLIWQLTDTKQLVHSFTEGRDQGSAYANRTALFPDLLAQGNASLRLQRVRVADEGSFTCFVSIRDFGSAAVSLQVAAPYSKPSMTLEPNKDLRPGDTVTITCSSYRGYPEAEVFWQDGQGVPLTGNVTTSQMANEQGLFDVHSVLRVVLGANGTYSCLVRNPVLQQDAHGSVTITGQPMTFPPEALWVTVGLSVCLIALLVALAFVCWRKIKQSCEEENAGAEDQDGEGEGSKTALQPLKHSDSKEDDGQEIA
# assay: cell-based or functional assay
IC50 of indirect ADC cytotoxicity on SKOV3 values for the binders below.
Field: numeric (nM). Do not append units.

binder: 20-A2-D10-G8 (human IgG1 chimeric antibody) (antibody, V domains shown, human IgG1 chimeric antibody of the mouse clone) VH: QVQLQQSGPELVRPGVSVKISCKGSGYTFTDYTMHWVKESHAQSLEWIGVISTYYGNTNYNQNFKGKATLTVDKSSSTAYMELAGLTSEDSAIYYCARASYGSGYGPYYWYFDVWGAGTTVTVSS VL: DIQMTQSPASLFASVGETVTITCRASEKIYSYLAWYFQKQGKSPQFLVYNANALAEGVPSRFSGSGSGTQFSLKIKSLQPEDFGTYYCQHHYGSPVTFGAGSKLELK
unit: nM
measured.result: 0.007
//
binder: 8-C3-E3-F3 (human IgG1 chimeric antibody) (antibody, V domains shown, human IgG1 chimeric antibody of the mouse clone) VH: EVQLVESGGGLVQPGGSLKLSCAASGFTFSNYGLSWVRLTPDKRLEVVATIGSYGGNTYYPDSVKGRFTISRDNAKNTLYLQMSSLKSEDTAIYYCARDIYYGNSEAWFAYWGQGTLVTVSA VL: DIVMTQAAFSNPVTLGTSASISCRSSKSLLHSNGITYLYWYLQKPGQSPQLLIYQMSNLASGVPDRFSSSGSETDFTLRISRVEAEDVGVYYCAQNLELPWTFGGGTKLEIK
unit: nM
measured.result: 0.012

(Q) Tell me the measured IC50 of indirect ADC cytotoxicity on SKOV3 of 6-D8-E7-A11 (human IgG1 chimeric antibody) (antibody, V domains shown, human IgG1 chimeric antibody of the mouse clone) VH: QVHLQQPGAELVKPGASVKLSCKASGYTFTNYWMHWVKRRPGQGLEWIGMIHPNSGTTSFNEKFKSKATLTVDKSSSTAYMQLSSLTSEDSAVYYCAGYYGSSFSWFTYWGQGTLVTVSA VL: QAVVTQESALTTSPGGTVILTCRSSTGAVTTSNFANWVQEKPDHLFTGLIGGTSNRAPGVPVRFSGSLIGDKAALTITGAQTEDDAMYFCALWYSTHYVFGGGTKVTVL , please.
(A) 0.008

(Q) Repeat with 20-C5-D7-D3 (human IgG1 chimeric antibody) (antibody, V domains shown, human IgG1 chimeric antibody of the mouse clone) VH: EVQLVESGGDLVKPGGSLKLSCAASGFTFRSYGMSWVRQTPDKRLEWVATISGGGNYTYYPDSVKGRFTISRDNAKNTLYLQMSSLKSEDTAMYYCARHEGLPLDYWGQGTTLTVSS VL: DIQMTQSPASLSASVGETVTITCRASENIYSYLAWYQQKQGKSPQLLVYNAKTLAEGVPSRFSGSGSGTQFSLKINSLQPEDFGNFYCQHHYGTPTWTFGGGTKLEIK
(A) 0.007

(Q) Param item: 25-C8-D7-C5 (human IgG1 chimeric antibody) (antibody, V domains shown, human IgG1 chimeric antibody of the mouse clone) VH: EVQLQESGGGLVKPGGSLKFSCAASGFTFSTYAMSWVRQTPEKRLEWVATISGGGIDTYYPDSVKGRFTISRDNAKNTLYLQMNSLRSEDTAMYYCARQGSKGWGAMDYWGQGTSVTVSS VL: QIVLTQSPAIMSASPGEKVTMTCRASSSVSFMHWYQQKSGTSPKRWIYETSKLASGVPDRFSGSGSGTSYSLTISSMEAEDAATYYCQQWSSNPLTFGAGTKLELK
(A) 0.018

(Q) Okay, and 16-C6-F7-F5 (human IgG1 chimeric antibody) (antibody, V domains shown, human IgG1 chimeric antibody of the mouse clone) VH: QIQLVQSGPEVKKPGETVKISCKASGYTFTKYGINWVKQAPGEGLKWMGWIWTYTGKPTYGDDFKGRFAFSLETSASTAYLQISDLKIEDMATYFCARDDGYYYTMNYWGQGTSVTVSS VL: DIVMTQTPLSLPVSLGDQASISCRSSQSLLHTNGDTYLHWYLQKAGQPPKLLIYKVSNRFSGVPDRFSGSGSGTDFTLKISRVEAEDLGVYFCSQSTHIPWTFGGGTKLEIK ?
(A) 0.009

(Q) Again, but for 25-D3-G4-C6 (human IgG1 chimeric antibody) (antibody, V domains shown, human IgG1 chimeric antibody of the mouse clone) VH: EIQLQQTGPELVKPGASVKISCKASGYSFTDYIILWVKQSHGMSLEWIGNINPYYNSTYYNLKFKGKATLTVDKSSSTAYMQLDSLTSEDSAVYYCARDSFDWYFGVWGAGTTVTVSS VL: DVVMTQTPLSLPVSLGDQASISCRSSQSLVHSNGNTYLHWYLQKPGQSPKLLIYKVSNRFSGVPDRFSGSGSGTDFTLKISRVETEDLGIYFCSQSTHVPPLTFGAGTKLELK
(A) 0.023

(Q) Next entry: 13-E4-G9-A4 (human IgG1 chimeric antibody) (antibody, V domains shown, human IgG1 chimeric antibody of the mouse clone) VH: EVMLVESGGGLVKPGGSLKFSCAASGFTFITYAMSWVRQTPEKRLEWVATISGGGIDTYYPDSVKGRFTISRDNAKNTLYLQVNSLRSEDTAMYYCTRQGSQGWGAMDYWGQGTSVTVSS VL: QIVLTQSPPIMSASPGERVTMTCRASSRVSFMHWYQQKSGTSPRRWIYETSKLASGVPDRFSGSVSGTSYSLTISSMEAEDAATYYCQQWSSNPLTFGAGTKLELK
(A) 0.021

(Q) Note, next up: 15-C8-B5-G7 (human IgG1 chimeric antibody) (antibody, V domains shown, human IgG1 chimeric antibody of the mouse clone) VH: QVQLQQPGAELVKPGASVKLSCKASDYTFTSHWMHWVKQRPGQGLEWIGMIHPNSGTTHYNENFKNKATLTVDNSSSTAYMQLSSLTSEDSAVYYCAWGSSNSYFYAMAYWGQGTSVTVSS VL: QAVVTQESALTTSPGETVTLTCRSSTGAVTTSNYANWVQEKPAHLFTGLIGGTNNRAPGVPARFSGSLIGDKAALTITGAQTEDEAIYFCALWFSNHLVFGGGTKLTVL
(A) 0.008

(Q) Again, but for 7-E1-F8-F6 (human IgG1 chimeric antibody) (antibody, V domains shown, human IgG1 chimeric antibody of the mouse clone) VH: QVQLQQSGPELVKPGASVQMSCKASGYTFTDYVISWVNQRTGQGLEWIGEIYPRSGNTYYNEKFKGKATLTADKSSNTAYMQLSSLTSEDSAVYFCARFDIAYSFDYWGQGTTLTVSS VL: DVVMTQTPLSLPVSLGDQASISCRSTQSLVHSNGVTYLHWYLQKPGQSPKLLIYKVSNRFSGVPDRFSGSGSGTDFTLKISRVEAEDLGVYFCSQGTHVPWTFGGGTKLEIK
(A) 0.028
